Collected half-life at 1 µM values appear next to each entry.
- EXPERIMENTAL DETAILS: in vitro
- PROTOCOL CONDITIONS: human, microsomes, t (1 / 2)
- Description: DNDI: half life in human liver microsomes at a concentration of 1uM
Give the quantity in h, number only.

> print(dat)
                      structure.smiles  value
1  CCCCc1ccc(-c2nc(CNC3CCCCCC3)co2)cc1    0.8

(Q) Find the recorded half-life at 1 µM belonging to `CCCCc1ccc(-c2nc(CN[C@@H]3C[C@@H]4C[C@H]([C@H]3C)C4(C)C)co2)cc1` and report it.
(A) 1.35

---

- EXPERIMENTAL DETAILS: DNDI: Cytotoxicity against L929 mouse fibroblasts, CYTO-SP, 24 hour
- Type: toxicity, cell-based
- PROTOCOL CONDITIONS: mouse, L929 mouse fibroblasts
IC50 at 24 h reference

> print(dat)
                                   compound      value
1  CCCCCOc1ccc(-c2nc(CNC3CC(C)CC(C)(C)C3)co2)cc1 (configuration not stated)  > 50 mg/L
2               COc1ccc(/C(CNC(C)C)=N/O)cc1  > 50 mg/L
3          N/C(=N/O)c1cccnc1Oc1cccc2ccccc12  > 50 mg/L
4           O=C(NC1CCCCC1)c1cccnc1Oc1ccccc1  > 50 mg/L

(Q) Value lookup for IC50 at 24 h; key = `Cc1cc(C)cc(Oc2ccc(/C(=N/O)NC3CCCC3)cn2)c1`
(A) < 50 mg/L

(Q) Another compound: `CCCCc1ccc(-c2nc(CNC3CCCCCC3)co2)cc1`
(A) > 50 mg/L

(Q) What do you get for `O/N=C(\NC1CCCCC1)c1ccnc(Oc2cccc3c2CCCC3)c1` ?
(A) 48.4 mg/L

(Q) Same read-out for `O/N=C(\NCC1CCCCC1)c1cccnc1Oc1ccc(Cl)cc1` ?
(A) > 50 mg/L

(Q) // same read-out, input: `O/N=C(\NC1CCC1)c1cccnc1Oc1ccc2c(c1)CCCC2`
(A) > 50 mg/L

(Q) Also, `Cc1cc(Oc2ccc(/C(=N/O)NCC3CC3)cn2)cc(C(C)C)c1` please.
(A) 27 mg/L

(Q) Consider next the compound CCCCCC(C)NCc1coc(-c2ccc(OC(C)C)cc2)n1 (configuration not stated) in the same way.
(A) > 50 mg/L

(Q) What would you report for `O/N=C(\NCc1ccccc1)c1cccnc1Oc1cc(Cl)ccc1Cl` ?
(A) > 50 mg/L

Value source: ChEMBL document CHEMBL1857833
